B1: CPEB3 Ribozyme (parent)
chain: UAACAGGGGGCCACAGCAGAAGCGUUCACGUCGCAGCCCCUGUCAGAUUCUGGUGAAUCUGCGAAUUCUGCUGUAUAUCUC

variants of: B1; assay: self-cleavage, relative activity (ratio to wild type); higher = more cleavage; in vitro, sequencing
quantity-name: self-cleavage
Numbers only.

Below, 8 variants whose answers are already recorded.
UAACAGGGGGCCACAGCAGAAGCGUUCACGCCGCAGCCCCUGUCAGAUUCAGGUGAAUCUGCGAAUUCUGCUGUAUAUCUC [U31C U51A]; 0.89
UGACAGGGGGCCACAGCAGAAGCGUUCACGUCGCAGCCCCUGUCUGAUUCUGGUGAAUCUGCGAAUUCUGCUGUAUAUCUC [A2G A45U]; 0.44
UAACAGGGGGCCACGGCAGAAGCGUUCACGUCGCCGCCCCUGUCAGAUUCUGGUGAAUCUGCGAAUUCUGCUGUAUAUCUC [A15G A35C]; 0.45
UAACAGGGGGCCACAGCAGCAGCGUUCACGUCGCAGCCCCUGUCAGAUACUGGUGAAUCUGCGAAUUCUGCUGUAUAUCUC [A20C U49A]; 0.16
UAACAGGGGGCCCCAGCAGAAGCGUUCACGUCGCAGCCCCUGUCAGACUCUGGUGAAUCUGCGAAUUCUGCUGUAUAUCUC [A13C U48C]; 0.68
UAACAGGGGGCCACAGCAGAAGCGCUCACGUCGCAGCCCCUGUCAGAUUCUGGUGAAUCUGCGAAUUCCGCUGUAUAUCUC [U25C U69C]; 0.22
UAACAGGGGGCCACAGCAGAAGCGUUCACGUCGCAGCCCCUGUCAGAUUCUGGUGUAUCUGCGAAUUCUGCUGUAUAUCUC [A56U]; 0.74
UAACAGGAGGCCACAGCAGAAGCGUUCACGUCGCAGCCCCUGUCAGAUUCUGGUGAAUCUGCGAAUUCUACUGUAUAUCUC [G8A G70A]; 0.05

Look at each variant and report its self-cleavage.
1. UAACAGGGAGCCACAGCAGAAGCGUUCACGUCGCAGCCCCUGUCAGAUUCUGGUGUAUCUGCGAAUUCUGCUGUAUAUCUC [G9A A56U]
2. UAACAGGGGGCAACAGCAGAAGCGUUCUCGUCGCAGCCCCUGUCAGAUUCUGGUGAAUCUGCGAAUUCUGCUGUAUAUCUC [C12A A28U]
3. UAACAGGGGGCCACAGCAGAAGCGUUCACGUCGCAGCCCCUGCCAGAUUCCGGUGAAUCUGCGAAUUCUGCUGUAUAUCUC [U43C U51C]

stdout:
0.23
0.92
0.77
